# target_of_assay: Neurogenic locus notch homolog protein 2 (Homo sapiens)
# protocol_text: Notch2 binders on small-molecule microarrays, primary screen, biochemical, small-molecule microarray, 635 nm fluorescence, stem cell growth factors (AID 1073)
# assay_setup: Notch2 binding, higher = more signal
Some compounds, each annotated with its measured composite z-score.
Hey, just send me the number, nothing else.

>>> value_reported("CN(C)CCCCNC(=O)[C@H]1C[C@H]2C(=O)N[C@@H](CCCC[N+](C)(C)C)C(=O)N2[C@H]1c1ccc(O)cc1")
-0.661
>>> value_reported("[N-]=[N+]=Nc1ccccc1C[C@@]1(C(=O)O)N=C(c2ccc(OCCCO)cc2)O[C@@H]1c1ccccc1N=[N+]=[N-]")
1.37
>>> value_reported("O=C1C2C=CC(C(O)c3ccc(I)cc3)N(Nc3ccccc3)C2C(=O)N1c1ccccc1 (configuration not stated)")
1.54
>>> value_reported("CC1(C)C(=O)C(c2ccccc2)=C2CN3C(=O)N(CCc4ccccc4)C(=O)C3(Cc3ccc(F)cc3)C=C21 (configuration not stated)")
1.47
>>> value_reported("C=CCNC(=O)[C@@H]1[C@H]2C(=O)O[C@H](c3ccccc3)[C@H](c3ccccc3)N2[C@H](c2ccc(O)cc2)[C@@]12C(=O)N(C(=O)OCCOC)c1ccc(C#CCCO)cc12")
0.258
>>> value_reported("COc1cc(NN2C(C(O)c3ccccc3)C=CC3C(=O)N(C)C(=O)C32)cc(OC)c1OC (configuration not stated)")
1.34

Please look at the following compound next.
Kindly note the recorded composite z-score for [N-]=[N+]=NCc1ccccc1[C@@H]1OC(c2ccc(OCCCO)cc2)=N[C@]1(Cc1ccccc1N=[N+]=[N-])C(=O)N1CCCCC1 , which is 1.55

* * *

# target_of_assay: Torsin-1A-interacting protein 1 (Homo sapiens) (UniProt Q5JTV8)
# Sequence (Q5JTV8 whole entry, looked up): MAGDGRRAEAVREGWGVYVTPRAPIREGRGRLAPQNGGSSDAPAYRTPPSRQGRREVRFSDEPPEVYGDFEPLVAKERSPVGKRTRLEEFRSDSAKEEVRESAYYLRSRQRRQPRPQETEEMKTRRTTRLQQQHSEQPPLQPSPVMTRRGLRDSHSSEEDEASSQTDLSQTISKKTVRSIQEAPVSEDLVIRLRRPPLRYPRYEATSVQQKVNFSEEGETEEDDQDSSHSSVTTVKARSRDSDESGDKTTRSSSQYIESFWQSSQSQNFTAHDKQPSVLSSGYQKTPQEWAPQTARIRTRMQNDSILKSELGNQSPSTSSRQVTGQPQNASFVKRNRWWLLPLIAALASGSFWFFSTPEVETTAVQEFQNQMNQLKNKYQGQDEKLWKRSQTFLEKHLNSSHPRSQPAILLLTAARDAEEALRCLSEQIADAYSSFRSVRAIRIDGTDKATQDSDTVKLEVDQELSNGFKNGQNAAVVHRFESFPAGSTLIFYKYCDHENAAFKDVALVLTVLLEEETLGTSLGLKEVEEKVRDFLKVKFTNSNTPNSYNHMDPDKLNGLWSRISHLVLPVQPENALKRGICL
# protocol_text: LAP1 binders from COS7 cell lysate, primary screen, small-molecule microarray, 635/667 nm fluorescence (AID 1116)
# assay_setup: COS7-hLAP1 lysate binding, 635 nm fluorescence, higher = more signal
Assign 1.0 to entries whose composite z-score meets or exceeds 0.2; assign 0.0 to the rest.

Observe how each entry below is paired with its result.
>>> qualitative_label("Cc1ccccc1C(O)C1C=CC2C(=O)N(c3ccccc3)C(=O)C2N1Nc1ccc([N+](=O)[O-])cc1 (stereo unspecified)")
1.0
>>> qualitative_label("COCCOC(=O)N1C(=O)[C@@]2(c3cc(C#CCNC(N)=O)ccc31)[C@H](c1ccc(O)cc1)N1[C@H](c3ccccc3)[C@H](c3ccccc3)OC(=O)[C@H]1[C@@H]2C(=O)N1CCN(c2ncccn2)CC1")
1.0
>>> qualitative_label("CCCCC(=C=CC[C@H](O)c1ccc(OCCO)cc1)C[C@H](O)c1cc(Cl)cc(Cl)c1O")
1.0
>>> qualitative_label("C=C(CCCC)C(=O)CC[C@H](OC(C)=O)c1ccc(OCCO)cc1")
0.0
>>> qualitative_label("O=C1OCCC/C=C\\[C@H]2OC34C=CCN(c5ccc6ccccc6c5)C(=O)[C@H]3N(CCCO)C(=O)[C@@H]4C12 (stereo partly specified)")
0.0

Tell me whether composite z-score is at least 0.2 here: CC(C)CCC[C@@H](C)[C@H]1CC[C@@]2(C)C3=C(CC[C@]12C)[C@@]1(C)CC[C@H](OC(=O)c2ccccc2)C(C)(C)C1CC3 (stereo partly specified) 0.0

Tell me whether composite z-score is at least 0.2 here: COc1ccc([Si](C)(C)[C@H]2[C@H](CC(=O)N3Cc4ccccc4C[C@H]3CO)O[C@@]3(C(=O)N(Cc4ccc(N5C(=O)c6cccc7cccc5c67)cc4)c4ccccc43)[C@@H]2C)cc1 1.0

Tell me whether composite z-score is at least 0.2 here: CCCNC(=O)[C@@]1(C)c2ccccc2C(=O)N(Cc2ccccc2)[C@H]1c1ccc(CO)cc1 1.0

Tell me whether composite z-score is at least 0.2 here: COCCCNC(=O)[C@@H]1c2ccccc2C(=O)N(C2Cc3ccccc3C2)[C@H]1c1ccc(CO)cc1 1.0

Tell me whether composite z-score is at least 0.2 here: COCCOC(=O)N1C(=O)[C@@]2(c3cc(C#CCNC(N)=O)ccc31)[C@H](c1ccc(OCCO)cc1)N1[C@H](c3ccccc3)[C@H](c3ccccc3)OC(=O)[C@H]1[C@@H]2C(=O)NC[C@H](O)c1ccccc1 1.0

* * *

# protocol_text: E. coli acrAB mutant growth effects, primary screen, E. coli filamentation inducers, strain DRC39, OD650, 24 h (AID 1178);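 also: growth measured as culture turbidity by optical density at 650 nm; test concentration not given here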
# assay_setup: higher = more signal, called active from +8 up or from −8 down
Some compounds, each annotated with its measured z-score.
Hey, just send me the number, nothing else.

>>> value_reported("O=C1OCC=C[C@H]2OC34C=CCN(c5ccc6ccccc6c5)C(=O)[C@H]3N(CCCCCO)C(=O)[C@@H]4[C@@H]12 (some centres not stated)")
-1.19

Kindly note the recorded z-score for C=CCC(OC(C)=O)[C@@H]1[C@@H](N(Cc2ccc(-c3cccc(C(F)(F)F)c3)o2)C(=O)c2ccc(C)cc2)c2cc(OCCCO)ccc2N1C(=O)Cc1ccc(OC)cc1 (some centres not stated) , which is 0.145

Kindly note the recorded z-score for COc1ccc(C(=O)Nc2cccc(CN3C(=O)[C@@]4(O[C@@H](CC(=O)N(CCO)Cc5ccccc5)[C@H]([Si](C)(C)c5ccc(OC)cc5)[C@H]4C)c4ccccc43)c2)cc1 , which is 0.289

Kindly note the recorded z-score for CCOC(=O)C1=CC[C@@H](c2ccccc2)N(S(=O)(=O)c2ccc(C)cc2)[C@H]1c1cccc(OC)c1 , which is -0.577

Kindly note the recorded z-score for CC(C)=CCCC(C)=CC(O)C1C=CC2C(=O)N(c3ccccc3)C(=O)C2N1Nc1ccccc1F (configuration not stated) , which is 0.131

Kindly note the recorded z-score for CC(C)(C)OC(=O)CC[C@]1(C(=O)N2CCCCC2)COC(c2ccc(OCCCO)cc2)=N1 , which is 0.134

Kindly note the recorded z-score for CC(C)CCC[C@@H](C)[C@H]1CC[C@@]2(C)C3=C(CC[C@]12C)[C@@]1(C)CC[C@H](OC(=O)c2ccccc2)C(C)(C)C1CC3 (some centres not stated) , which is 1.94

* * *

Some compounds, each annotated with its measured composite z-score.
# target_of_assay: Carbonic anhydrase 2 (Homo sapiens)
# protocol_text: CAII small-molecule binders, profiling panel, biochemical, small-molecule microarray, Alexa647-labelled CAII (AID 1122)
# assay_setup: CAII-A647 binding fluorescence, higher = more signal
Hey, just send me the number, nothing else.

Example entries and their recorded answers appear below.
>>> value_reported("O=C1C2C=CC(C(O)c3ccc(I)cc3)N(Nc3ccccc3)C2C(=O)N1c1ccccc1 (stereo not drawn)")
0.738
>>> value_reported("C=CCOC(=O)[C@H]1[C@@H]2C(=O)O[C@@H](c3ccccc3)[C@@H](c3ccccc3)N2[C@@H](c2ccc(OCCOC(=O)[C@H]3C[C@H]4C(=O)N[C@@H](CCCCNC(C)=O)C(=O)N4[C@H]3c3cccc(OCCO)c3)cc2)[C@]12C(=O)Nc1ccc(I)cc12")
0.605
>>> value_reported("COCCOC(=O)N1C(=O)[C@@]2(c3cc(C#Cc4ccc(OC)cc4)ccc31)[C@H](C(=O)NC[C@H](O)c1ccccc1)[C@H]1C(=O)O[C@H](c3ccccc3)[C@H](c3ccccc3)N1[C@@H]2c1ccc(OCCO)cc1")
0.441
>>> value_reported("CN1C(=O)C2C=CC(C(O)c3ccc(I)cc3)N(Nc3ccccc3)C2C1=O (stereo not drawn)")
0.547
>>> value_reported("CO[C@H]1O[C@H](CO)[C@@H](OC(=O)Nc2ccc(C#N)cc2)[C@@H]2OC(=O)[C@H](Cc3cccc(Br)c3)C/C=C/C[C@@H](Cc3cccc(Br)c3)C(=O)O[C@@H]12")
0.26

Kindly note the recorded composite z-score for C=C(C(=O)CC[C@H](OC(=O)c1ccccc1-c1ccccc1C(=O)O)c1ccccc1OCCO)C(C)C , which is 0.52

Kindly note the recorded composite z-score for COCCOC(=O)N1C(=O)[C@@]2(c3cc(C#CC4(O)CCCCCC4)ccc31)[C@H](c1ccc(OCCO)cc1)N1[C@H](c3ccccc3)[C@H](c3ccccc3)OC(=O)[C@H]1[C@@H]2C(=O)Nc1nc2ccccc2s1 , which is 0.161

Kindly note the recorded composite z-score for Cc1cccc([C@H]2C[C@H]3C(Br)=C[C@@H]2C(=O)[C@]32CO2)c1 , which is -0.255

* * *

# target_of_assay: Carbonic anhydrase 2 (Homo sapiens) (UniProt P00918)
# protocol_text: CAII small-molecule binders, profiling panel, biochemical, small-molecule microarray, Alexa647-labelled CAII (AID 1122)
# assay_setup: CAII-A647 binding fluorescence, higher = more signal
Some compounds, each annotated with its measured composite z-score.
Hey, just send me the number, nothing else.

Example entries and their recorded answers appear below.
>>> value_reported("CCc1cccc(NC(=O)O[C@H]2[C@H](OC(=O)Nc3ccccc3)[C@H](OC(=O)Nc3ccccc3)[C@@H](OC)O[C@@H]2CO)c1")
0.663
>>> value_reported("CC(C)CNC(=O)[C@@H]1c2ccccc2C(=O)N(C2CCCCC2)[C@H]1c1ccc(CO)cc1")
0.694
>>> value_reported("O=C1O[C@H](c2ccccc2)[C@H](c2ccccc2)N2[C@H]1[C@@H](C(=O)O)[C@]1(C(=O)Nc3ccc(C#CC4(O)CCCCCC4)cc31)[C@H]2c1ccc(O)cc1")
0.811

Kindly note the recorded composite z-score for CCOC(=O)C1=C[C@@H](C(C)(C)C)N(S(=O)(=O)c2ccc(C)cc2)[C@H]1c1cccc(Cl)c1 , which is 0.232

Kindly note the recorded composite z-score for C=CCC(OC(C)=O)[C@@H]1[C@@H](N(Cc2ccc(-c3cccc(C(F)(F)F)c3)o2)C(=O)Cc2ccc(OC)cc2)c2cc(OCCCO)ccc2N1C(=O)Cc1ccc2ccccc2c1 (stereo not given in full) , which is -0.121

Kindly note the recorded composite z-score for COC(=O)[C@@]1(Cc2ccccc2CN=[N+]=[N-])N=C(c2ccc(OCCCO)cc2)O[C@H]1c1ccccc1CN=[N+]=[N-] , which is 0.885
